Target: menin/MLL (terbium chelate-labeled menin, FITC-MBM1 peptide) (Homo sapiens (Human), UniProt O00255)
Sequence (O00255 other isoform, or with tags, fused parts or gaps): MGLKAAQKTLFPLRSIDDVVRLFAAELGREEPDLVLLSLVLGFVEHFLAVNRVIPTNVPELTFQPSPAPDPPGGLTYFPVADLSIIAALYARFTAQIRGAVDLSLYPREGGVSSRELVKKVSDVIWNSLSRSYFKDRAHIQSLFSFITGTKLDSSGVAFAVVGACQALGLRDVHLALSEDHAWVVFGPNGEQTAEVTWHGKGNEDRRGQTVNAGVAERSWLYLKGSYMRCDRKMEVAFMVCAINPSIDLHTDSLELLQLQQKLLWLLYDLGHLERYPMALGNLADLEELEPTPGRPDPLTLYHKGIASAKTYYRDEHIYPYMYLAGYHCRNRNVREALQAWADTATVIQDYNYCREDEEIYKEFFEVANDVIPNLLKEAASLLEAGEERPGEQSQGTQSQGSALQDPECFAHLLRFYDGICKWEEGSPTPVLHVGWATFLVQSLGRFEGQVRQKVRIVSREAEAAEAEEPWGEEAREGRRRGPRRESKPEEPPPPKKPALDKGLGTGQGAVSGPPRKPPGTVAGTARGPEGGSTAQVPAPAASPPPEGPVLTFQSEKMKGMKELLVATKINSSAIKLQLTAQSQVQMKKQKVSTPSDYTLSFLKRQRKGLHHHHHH
Assay: Menin/MLL homogenous time-resolved fluorescence (HTRF) assay;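 note: IC50 from percent inhibition of HTRF signal, normalized between wells without competitor and wells with a saturating competitor that displaces FITC-MBM1 from His-tagged menin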
Type: binding
Details: HTRF-30 min incubation IC50, 30 min incubation
Structures can show the parent of a compound that is named as a salt.
Reported Property: IC50 (nM)

CCCN(C)C[C@@H](O)C[C@@H](C(C)C)N1CC2(CCN(c3ncnnc3Oc3ccc(F)cc3C(=O)N(CC)C(C)C)C2)C1 (single isomer, unassigned) : 9.52

[I] CCN(C(=O)c1cc(F)ccc1Oc1nncnc1N1CCC2(C1)CN([C@@H](C[C@@H](O)CN(C)CCOC)C(C)C)C2)C(C)C (single isomer, unassigned)
[II] COCCN(C)CCC[C@H](C(C)C)N1CC2(CCN(c3ccnnc3Oc3ccc(F)cc3C(=O)N(C(C)C)C(C)C)C2)C1 (single isomer, unassigned)
[III] CC(C)[C@@H](CCCN(C)[C@@H](C)CC(N)=O)N1CC2(CCN(c3ncnnc3Oc3ccc(F)cc3C(=O)N(C(C)C)C(C)C)C2)C1 (single isomer, unassigned)
[IV] CCN(C(=O)c1cc(F)ccc1Oc1nncnc1N1CCC2(C1)CN([C@@H](CCCN(C)C)C(C)C)C2)C(C)C [Compound 5, formate]
List from greatest to least IC50. Labels, requested order. I, IV, III, II
